Data provenance is PubChem BioAssay (NCATS).

# Target Or System: Nucleoprotein (Lymphocytic choriomeningitis virus (strain Armstrong))
# Protocol Description: qHTS for Inhibitors of the Functional Ribonucleoprotein Complex (vRNP) of Lymphocytic Choriomeningitis Arenaviruses (LCMV): LCMV Primary Screen - GLuc reporter signal (AID 1347086); also: nearly all actives have a fitted effect of over 70% in size
# Study Conditions: LCMV minigenome vRNP cell assay, Gaussia luciferase reporter; series mostly up to 57.5 µM
Results filed as inconclusive are left out. Activity calls are given as the source filed them. Calls follow the shape of the full dose curve.
Give one outcome, nothing more. List: active, inactive

See these solved cases before continuing.
COC(=O)c1c(C)cc(O)c(C=O)c1O	inactive
O=C1c2c(O)cc(O)cc2O[C@@]12c1c(cc(O)c3c1O[C@H](c1ccc(O)cc1)[C@@H](O)C3)O[C@@H]2c1ccc(O)cc1	inactive
CC[C@@]1([C@@H]2O[C@@H]([C@H]3O[C@@](O)(CO)[C@H](C)C[C@H]3C)C[C@H]2C)CC[C@H]([C@]2(C)CC[C@]3(C[C@H](O)[C@@H](C)[C@@H]([C@@H](C)[C@@H](OC)[C@H](C)C(=O)O)O3)O2)O1	active

Request: Which outcome was entered for the compound O=C(O)C1CCCNC1 (stereo unspecified) in this test?
Response: inactive

Request: Which outcome was entered for the compound C#C[C@]1(O)CC[C@H]2[C@H]3CCc4cc(OC)ccc4[C@H]3CC[C@@]21C in this test?
Response: active

Request: Which outcome was entered for the compound CCCCCCCCCC(=O)N[C@@H](Cc1c[nH]c2ccccc12)C(=O)N[C@H](CC(N)=O)C(=O)N[C@@H](CC(=O)O)C(=O)N[C@@H]1C(=O)NCC(=O)N[C@@H](CCCN)C(=O)N[C@@H](CC(=O)O)C(=O)N[C@H](C)C(=O)N[C@@H](CC(=O)O)C(=O)NCC(=O)N[C@H](CO)C(=O)N[C@@H]([C@@H](C)CC(=O)O)C(=O)N[C@@H](CC(=O)c2ccccc2N)C(=O)O[C@@H]1C in this test?
Response: inactive

----------
# Target Or System: Nucleoprotein (Lymphocytic choriomeningitis virus (strain Armstrong))
# Protocol Description: qHTS for Inhibitors of the Functional Ribonucleoprotein Complex (vRNP) of Lymphocytic Choriomeningitis Arenaviruses (LCMV): LCMV Primary Screen - GLuc reporter signal (AID 1347086); also: nearly all actives have a fitted effect of over 70% in size
# Study Conditions: LCMV minigenome vRNP cell assay, Gaussia luciferase reporter; series mostly up to 57.5 µM
Inconclusive results are not listed. Activity calls are given as the source filed them. Calls follow the shape of the full dose curve.
Give one outcome, nothing more. List: 1 = active, -1 = inactive

CC1=CC(=O)CCC1	-1
CCN(CC)CCNC(=O)c1c(C)[nH]c(C=C2C(=O)Nc3ccc(F)cc32)c1C	1
CN[C@H](CC(C)C)C(=O)N[C@H]1C(=O)N[C@@H](CC(N)=O)C(=O)N[C@H]2C(=O)N[C@H]3C(=O)N[C@H](C(=O)N[C@H](C(=O)O)c4cc(O)cc(O)c4-c4cc3ccc4O)[C@H](O)c3ccc(c(Cl)c3)Oc3cc2cc(c3O[C@@H]2O[C@H](CO)[C@@H](O)[C@H](O)[C@H]2O[C@H]2C[C@](C)(N)[C@H](O)[C@H](C)O2)Oc2ccc(cc2Cl)[C@H]1O	-1
CNc1cc(NS(=O)(=O)c2ccc(N)cc2)nc(NC)n1	-1

Request: Which outcome was entered for the compound C=CC(=O)Nc1cccc(Sc2nc(Nc3ccc(N4CCN(C)CC4)cc3)ncc2Cl)c1 in this test?
Response: -1

Request: Which outcome was entered for the compound CN(N=O)C(=O)N[C@H]1C(O)OC(CO)[C@@H](O)[C@H]1O (stereo partly drawn) in this test?
Response: -1

Request: Which outcome was entered for the compound CC1=C[C@H]2[C@]3(O)C(C=C(CO)C[C@]2(O)C1=O)[C@@H]1C(C)(C)[C@]1(O)[C@H](O)[C@H]3C (stereo partly drawn) in this test?
Response: -1

Request: Which outcome was entered for the compound CC(O)C(O)[C@H]1CNc2nc(N)[nH]c(=O)c2N1 (stereo partly drawn) in this test?
Response: -1
